Molecular target: T1, human soluble αvβ5 protein (extracellular domains of human αv and β5 integrin subunits) (human, UniProt P06756 31-992; P18084 24-719)
T1 construct: also called biotin-αvβ5; hsαvβ5
T1 sequence (P06756 31-992 limits assumed, chain 1 of 2): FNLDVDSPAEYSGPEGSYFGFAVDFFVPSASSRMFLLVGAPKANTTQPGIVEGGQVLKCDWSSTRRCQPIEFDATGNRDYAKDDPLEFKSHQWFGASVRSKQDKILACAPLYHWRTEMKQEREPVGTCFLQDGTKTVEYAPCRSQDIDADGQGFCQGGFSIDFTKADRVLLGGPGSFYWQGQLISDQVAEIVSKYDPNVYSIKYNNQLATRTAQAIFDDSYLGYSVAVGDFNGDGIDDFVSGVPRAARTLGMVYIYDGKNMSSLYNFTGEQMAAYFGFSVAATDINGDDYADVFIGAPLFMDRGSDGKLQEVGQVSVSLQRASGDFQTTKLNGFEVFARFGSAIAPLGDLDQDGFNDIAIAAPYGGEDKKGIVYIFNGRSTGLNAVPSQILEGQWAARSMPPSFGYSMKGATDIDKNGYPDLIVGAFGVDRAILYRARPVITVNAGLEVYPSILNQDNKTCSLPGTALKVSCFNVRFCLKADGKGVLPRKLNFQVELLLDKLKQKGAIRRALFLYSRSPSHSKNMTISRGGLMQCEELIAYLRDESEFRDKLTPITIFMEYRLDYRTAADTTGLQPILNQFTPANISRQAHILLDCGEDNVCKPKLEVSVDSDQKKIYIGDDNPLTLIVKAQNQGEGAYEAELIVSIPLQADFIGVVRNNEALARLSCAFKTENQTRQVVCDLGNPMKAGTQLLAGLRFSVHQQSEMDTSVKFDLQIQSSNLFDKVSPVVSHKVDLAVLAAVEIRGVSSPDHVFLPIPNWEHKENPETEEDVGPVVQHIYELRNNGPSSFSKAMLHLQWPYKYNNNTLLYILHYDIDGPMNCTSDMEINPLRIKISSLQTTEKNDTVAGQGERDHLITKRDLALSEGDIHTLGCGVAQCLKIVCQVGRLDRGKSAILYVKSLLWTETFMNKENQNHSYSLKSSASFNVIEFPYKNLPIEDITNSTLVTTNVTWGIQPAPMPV
T1 sequence (P18084 24-719 limits assumed, chain 2 of 2): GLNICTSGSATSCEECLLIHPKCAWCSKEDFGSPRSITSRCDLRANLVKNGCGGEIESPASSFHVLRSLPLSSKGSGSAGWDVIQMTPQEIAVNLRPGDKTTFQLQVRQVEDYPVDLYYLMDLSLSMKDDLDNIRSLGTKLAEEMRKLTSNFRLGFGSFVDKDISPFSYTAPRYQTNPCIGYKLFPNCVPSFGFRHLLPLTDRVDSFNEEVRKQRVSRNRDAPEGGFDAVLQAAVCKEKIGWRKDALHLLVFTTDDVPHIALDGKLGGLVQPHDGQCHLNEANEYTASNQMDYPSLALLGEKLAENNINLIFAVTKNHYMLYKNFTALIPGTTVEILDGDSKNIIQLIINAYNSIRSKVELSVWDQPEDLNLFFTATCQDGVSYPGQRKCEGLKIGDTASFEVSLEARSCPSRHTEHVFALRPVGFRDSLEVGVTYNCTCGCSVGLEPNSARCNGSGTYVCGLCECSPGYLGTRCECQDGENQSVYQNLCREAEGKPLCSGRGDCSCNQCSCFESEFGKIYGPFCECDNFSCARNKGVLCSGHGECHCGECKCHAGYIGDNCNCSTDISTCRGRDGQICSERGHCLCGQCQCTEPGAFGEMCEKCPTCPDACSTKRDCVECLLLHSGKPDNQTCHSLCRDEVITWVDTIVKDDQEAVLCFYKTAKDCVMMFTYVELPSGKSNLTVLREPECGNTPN
Assay: ELISA, inhibition of soluble αvβ5 binding to coated human plasma vitronectin

| binder | IC50 |
| --- | --- |
| VH0/VL0 Agly-hIgG1(T299A) (antibody, V domains shown, also called H0/L0) VH: EVQLVESGGGLVKPGGSLRLSCAASGYTFTSYWMHWVRQAPGKGLEWVGAIYPGNSDTSYNQKFKGRFTISRDDSKNTLYLQMNSLKTEDTAVYYCTTTTYGYDWFAYWGQGTLVTVSS VL: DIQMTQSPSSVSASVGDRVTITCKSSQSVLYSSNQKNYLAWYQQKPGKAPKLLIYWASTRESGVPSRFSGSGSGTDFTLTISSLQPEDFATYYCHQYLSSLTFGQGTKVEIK | 11.1 nM |
| VH2/VL2 Agly-hIgG1(T299A) (antibody, V domains shown, also called H2/L2 (Agly-IgG1)) VH: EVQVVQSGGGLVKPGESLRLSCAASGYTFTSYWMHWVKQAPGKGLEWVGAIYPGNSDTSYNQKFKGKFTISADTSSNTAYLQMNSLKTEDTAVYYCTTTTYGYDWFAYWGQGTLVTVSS VL: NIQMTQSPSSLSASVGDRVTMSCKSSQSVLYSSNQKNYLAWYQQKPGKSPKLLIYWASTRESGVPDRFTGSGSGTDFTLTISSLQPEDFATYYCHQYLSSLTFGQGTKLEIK | 1.1 nM |
| VH4/VL1 Agly-hIgG1(T299A) (antibody, V domains shown, also called H4/L1) VH: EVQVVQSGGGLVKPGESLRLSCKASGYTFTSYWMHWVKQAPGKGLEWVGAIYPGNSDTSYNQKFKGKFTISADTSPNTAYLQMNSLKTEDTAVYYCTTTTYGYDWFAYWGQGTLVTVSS VL: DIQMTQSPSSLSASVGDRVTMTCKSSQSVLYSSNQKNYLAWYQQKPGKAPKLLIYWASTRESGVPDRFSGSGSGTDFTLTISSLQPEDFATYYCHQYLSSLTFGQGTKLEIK | 0.9 nM |
| VH4/VL0 Agly-hIgG1(T299A) (antibody, V domains shown, also called H4/L0 (Agly-IgG1)) VH: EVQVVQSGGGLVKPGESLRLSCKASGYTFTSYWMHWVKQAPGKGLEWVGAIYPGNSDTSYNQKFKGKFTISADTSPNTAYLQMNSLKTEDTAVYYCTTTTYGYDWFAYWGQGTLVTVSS VL: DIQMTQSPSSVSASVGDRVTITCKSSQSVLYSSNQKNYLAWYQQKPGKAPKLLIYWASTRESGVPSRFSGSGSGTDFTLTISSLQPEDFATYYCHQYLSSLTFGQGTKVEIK | 1.7 nM |
| VH5/VL0 Agly-hIgG1(T299A) (antibody, V domains shown, also called H5/L0) VH: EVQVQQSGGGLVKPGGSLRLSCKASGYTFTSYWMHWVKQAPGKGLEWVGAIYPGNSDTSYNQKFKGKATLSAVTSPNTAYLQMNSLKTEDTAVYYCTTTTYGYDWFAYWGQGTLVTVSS VL: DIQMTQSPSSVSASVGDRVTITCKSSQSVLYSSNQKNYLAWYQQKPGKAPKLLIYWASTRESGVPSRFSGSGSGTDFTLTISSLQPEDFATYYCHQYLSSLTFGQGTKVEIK | 3.1 nM |
